Where do the numbers come from? From BindingDB's records for doi:10.7270/Q2VT1QQ4.

Target: Xylosyl- and glucuronyltransferase LARGE1 (Homo sapiens)
Sequence (O95461 whole entry): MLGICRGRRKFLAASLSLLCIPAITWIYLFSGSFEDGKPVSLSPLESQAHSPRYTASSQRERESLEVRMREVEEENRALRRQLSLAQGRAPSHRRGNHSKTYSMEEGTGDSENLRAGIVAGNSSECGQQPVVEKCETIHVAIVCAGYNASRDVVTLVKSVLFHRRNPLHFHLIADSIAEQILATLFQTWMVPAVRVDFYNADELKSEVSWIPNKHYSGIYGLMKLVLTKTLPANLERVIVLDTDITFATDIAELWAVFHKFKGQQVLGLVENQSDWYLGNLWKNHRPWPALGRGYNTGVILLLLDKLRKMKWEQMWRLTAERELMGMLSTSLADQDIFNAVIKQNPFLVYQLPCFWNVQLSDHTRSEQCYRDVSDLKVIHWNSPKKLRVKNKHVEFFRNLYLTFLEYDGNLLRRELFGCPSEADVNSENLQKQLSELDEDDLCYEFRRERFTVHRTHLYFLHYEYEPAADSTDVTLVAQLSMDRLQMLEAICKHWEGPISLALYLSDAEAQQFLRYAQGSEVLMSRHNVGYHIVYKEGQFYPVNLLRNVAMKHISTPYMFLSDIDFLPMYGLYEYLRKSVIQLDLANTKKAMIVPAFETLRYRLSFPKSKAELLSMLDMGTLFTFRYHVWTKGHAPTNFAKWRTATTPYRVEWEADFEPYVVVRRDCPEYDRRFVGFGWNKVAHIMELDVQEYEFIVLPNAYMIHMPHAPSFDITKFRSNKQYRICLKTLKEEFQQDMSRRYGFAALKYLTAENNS
assay_endpoint: EC50 (µM)

Oc1c(Cl)c(N=Cc2ccco2)c(O)c2ccccc12    4.97
